# Tested on: apoB secretion in HepG2 cells
# assay_comment: Test C: inhibition of apoB secretion in the HepG2 human cell line (sandwich ELISA)
# Format: cell-based
# conditions_used: 24 hours incubation, read-out: IC50 (concentration that produces a 50% inhibition of apoB secretion in the HepG2 cells)
measured_quantity: IC50 (nM)
Write the value in nM as a bare number.

Prompt: Given the entry `O=C(NC1CCN(Cc2cccnc2)CC1)c1ccccc1-c1ccc(C(F)(F)F)cc1` , report its measured IC50.
Completion: 18
